This collection of values is drawn from the RNAGym collection of RNA variant scans (doi:10.1093/nar/gkz1192).

B1: CPEB3 Ribozyme (parent)
chain: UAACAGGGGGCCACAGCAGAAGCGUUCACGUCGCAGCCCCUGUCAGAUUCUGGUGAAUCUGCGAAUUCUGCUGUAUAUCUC

# Variants of: B1
# Test Details: self-cleavage, relative activity (ratio to wild type); higher = more cleavage; in vitro, sequencing
Measured Quantity: self-cleavage

Sample records with self-cleavage:
Problem: May I ask what self-cleavage has been recorded for C14U A64G ?
Solution: 1.17

Problem: Would you kindly share the measured self-cleavage for U78C C81U ?
Solution: 1.15

Problem: Any idea what self-cleavage was measured for U48C G61A ?
Solution: 0.33

Problem: Would you mind telling me what self-cleavage value was observed for U43C C71A ?
Solution: 0.36

Problem: Consider the variant A18U A21C and give its measured self-cleavage.
Solution: 0.2

Problem: # get_value(readout='self-cleavage', item= U60C U80C )
Solution: 0.57

Problem: Consider the variant A45G A56C and give its measured self-cleavage.
Solution: 0.39

Problem: What value of measured self-cleavage is listed for A15G U80A ?
Solution: 1.07

Problem: For the variant A3C U76A , what self-cleavage is on record?
Solution: 1

Problem: Value lookup for self-cleavage; key = A20G U72A
Solution: 0.46

Further cases:
Problem: Endpoint output: self-cleavage of C40U G46A . Value?
Solution: 0.18

Problem: Recorded self-cleavage for C12U A45G , please?
Solution: 1.25
